Reference for the values: ChEMBL document CHEMBL1133478

The reader will find reported pKb values listed item by item below.
Tested on: Substance-K receptor (Oryctolagus cuniculus)
Experiment: In Vitro evaluation for the functional activity towards Tachykinin receptor 2
Bridge positions count the residues as written; N and C are the ends. Square brackets hold non-standard residues; d marks the D form. Peptide text beside a SMILES is read from it. Dap = NC[C@H](N)C(=O)O

compound	pKb
O=C1CCC(=O)N[C@@H](Cc2c[nH]c3ccccc23)C(=O)N[C@@H](Cc2ccccc2)C(=O)N[C@H](CC2CCCCC2)CN1	6.5
CSCC[C@@H]1NC(=O)[C@H](CC(C)C)NC(=O)[C@@H]2CNC(=O)C[C@H](NC1=O)C(=O)N[C@@H](Cc1c[nH]c3ccccc13)C(=O)N[C@@H](Cc1ccccc1)C(=O)N2 (cyclo(DWF[Dap]LM); lactam 1-4)	8.1
O=C1CCC(=O)N[C@@H](Cc2c[nH]c3ccccc23)C(=O)N[C@@H](Cc2ccccc2)C(=O)N[C@H](Cc2ccc3ccccc3c2)CN1	7
O=C1CCC(=O)N[C@@H](Cc2c[nH]c3ccccc23)C(=O)N[C@@H](Cc2ccccc2)C(=O)N[C@H](CCc2ccccc2)CN1	6.5
O=C1CCC(=O)N[C@@H](Cc2c[nH]c3ccccc23)C(=O)N[C@@H](Cc2ccccc2)C(=O)N[C@H](Cc2ccc(F)c(F)c2)CN1	7.8
O=C1CCC(=O)N[C@@H](Cc2c[nH]c3ccccc23)C(=O)N[C@@H](Cc2ccccc2)C(=O)N[C@H](Cc2ccc(Cl)c(Cl)c2)CN1	8.1
O=C1CCC(=O)N[C@H](Cc2ccccc2)CNC(=O)[C@H](Cc2ccccc2)NC(=O)C(Cc2c[nH]c3ccccc23)N1 (single isomer, unassigned)	5.4
O=C1CCC(=O)N[C@@H](Cc2c[nH]c3ccccc23)C(=O)N[C@@H](Cc2ccccc2)C(=O)NCCN1	6.3
COc1ccc(CC2CNC(=O)CCC(=O)N[C@@H](Cc3c[nH]c4ccccc34)C(=O)N[C@@H](Cc3ccccc3)C(=O)N2)cc1 (stereo partly drawn)	7.1
O=C1CC(Cc2ccccc2)C(=O)N[C@@H](Cc2c[nH]c3ccccc23)C(=O)N[C@@H](Cc2ccccc2)C(=O)NCCN1 (mixture of isomers)	5.7
O=C1CCC(=O)N[C@@H](Cc2c[nH]c3ccccc23)C(=O)N[C@@H](Cc2ccccc2)C(=O)NC[C@H](Cc2ccccc2)N1	5.5
O=C1CC(Cc2ccccc2)C(=O)NCCNC(=O)[C@H](Cc2ccccc2)NC(=O)[C@H](Cc2c[nH]c3ccccc23)N1 (mixture of isomers)	6.1
O=C1CCC(=O)N[C@@H](Cc2c[nH]c3ccccc23)C(=O)N[C@@H](Cc2ccccc2)C(=O)N[C@H](Cc2ccc(C(F)(F)F)cc2)CN1	7.1

* * *

Protein target, amino acids: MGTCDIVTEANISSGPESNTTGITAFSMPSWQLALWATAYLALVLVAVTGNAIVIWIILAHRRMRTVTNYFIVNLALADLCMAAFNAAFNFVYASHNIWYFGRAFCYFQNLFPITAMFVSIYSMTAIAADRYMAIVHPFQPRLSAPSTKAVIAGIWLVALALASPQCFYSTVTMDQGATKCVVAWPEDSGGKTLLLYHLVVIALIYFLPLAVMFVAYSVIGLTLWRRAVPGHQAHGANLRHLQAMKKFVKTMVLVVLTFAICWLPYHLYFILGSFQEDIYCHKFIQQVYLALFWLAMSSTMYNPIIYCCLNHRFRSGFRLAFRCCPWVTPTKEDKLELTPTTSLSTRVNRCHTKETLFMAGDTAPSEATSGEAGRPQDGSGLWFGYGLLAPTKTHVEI
Bridge positions count the residues as written; N and C are the ends. Square brackets hold non-standard residues; d marks the D form. Peptide text beside a SMILES is read from it. * marks the point of attachment. NH(β-GlcNAc) = CC(=O)N[C@@H]1[C@@H](O)[C@H](O)[C@@H](CO)O[C@H]1N*; Dap = NC[C@H](N)C(=O)O
endpoint-name: Ki (nM)

compound	endpoint-name	recorded-measurement
CSCC[C@@H]1NC(=O)[C@H](CC(C)C)NC(=O)[C@@H]2CNC(=O)C[C@H](NC1=O)C(=O)N[C@@H](Cc1c[nH]c3ccccc13)C(=O)N[C@@H](Cc1ccccc1)C(=O)N2 (cyclo(DWF[Dap]LM); lactam 1-4)	Ki	0.631
CC(=O)N[C@@H]1[C@@H](O)[C@H](O)[C@@H](CO)O[C@H]1NC(=O)C[C@@H]1NC(=O)[C@H](CC(C)C)NC(=O)[C@@H]2CNC(=O)C[C@H](NC1=O)C(=O)N[C@@H](Cc1c[nH]c3ccccc13)C(=O)N[C@@H](Cc1ccccc1)C(=O)N2 (cyclo(D(NH(β-GlcNAc))DWF[Dap]L); lactam 2-5)	Ki	2.51
O=C1CCC(=O)N[C@@H](Cc2c[nH]c3ccccc23)C(=O)N[C@@H](Cc2ccccc2)C(=O)N[C@H](Cc2ccc3ccccc3c2)CN1	Ki	7.94
O=C1CCC(=O)N[C@@H](Cc2c[nH]c3ccccc23)C(=O)N[C@@H](Cc2ccccc2)C(=O)N[C@H](Cc2ccc(F)c(F)c2)CN1	Ki	1.58

* * *

Protein target, amino acids: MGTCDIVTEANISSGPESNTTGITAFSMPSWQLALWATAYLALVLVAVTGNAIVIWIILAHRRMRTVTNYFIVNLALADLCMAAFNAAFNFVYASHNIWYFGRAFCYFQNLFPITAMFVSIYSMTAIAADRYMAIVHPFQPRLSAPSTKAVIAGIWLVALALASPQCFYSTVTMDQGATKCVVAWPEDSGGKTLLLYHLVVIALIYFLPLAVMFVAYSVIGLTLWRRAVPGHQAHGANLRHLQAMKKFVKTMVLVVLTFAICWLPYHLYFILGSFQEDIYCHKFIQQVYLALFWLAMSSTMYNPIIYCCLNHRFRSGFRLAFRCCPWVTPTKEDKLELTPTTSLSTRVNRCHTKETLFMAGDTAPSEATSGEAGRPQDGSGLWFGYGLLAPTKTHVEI
pKi: −log10 of the molar value.

molecule	pKi
O=C1CCC(=O)N[C@@H](Cc2c[nH]c3ccccc23)C(=O)N[C@@H](Cc2ccccc2)C(=O)N[C@H](CC2CCCCC2)CN1	6.50
O=C1CC(Cc2ccccc2)C(=O)NCCNC(=O)[C@H](Cc2ccccc2)NC(=O)[C@H](Cc2c[nH]c3ccccc23)N1 (mixture of isomers)	6.10
O=C1CC(Cc2ccccc2)C(=O)N[C@@H](Cc2c[nH]c3ccccc23)C(=O)N[C@@H](Cc2ccccc2)C(=O)NCCN1 (mixture of isomers)	6.20
